# Test system: HEK-293T
# assay.overview: Protonophoric activity in human HEK293T/17 cells assessed as mitochondrial membrane depolarization at 50 uM for 30 mins by TMRE dye based fluorescence spectrometry
# Type: functional, cell-based
Activity calls are given as the source filed them. The calls are words filed in the database; no cut-off is given here.
Outcome codes: active, inactive

# compound, class.assignment
rows = [
    ("COc1c(I)cc(I)cc1C(=O)Nc1ccc(Oc2ccc(Cl)cc2)cc1", "inactive"),
    ("Cc1cc(C(C#N)c2ccc(Cl)cc2)c(Cl)cc1NC(=O)c1cc(I)cc(I)c1O (configuration not stated)", "active"),
    ("O=C(Nc1ccc(Oc2ccc(Cl)cc2)c(Cl)c1)c1cc(I)cc(I)c1O [RAFOXANIDE]", "active"),
    ("COc1c(I)cc(I)cc1C(=O)N(C)c1ccc(Oc2ccccc2)cc1", "inactive"),
    ("COc1c(I)cc(I)cc1C(=O)Nc1ccc(Oc2ccccc2)cc1", "inactive"),
    ("O=C(Nc1ccc(Oc2ccc(Cl)cc2)cc1)c1cc(I)cc(I)c1", "inactive"),
    ("O=C(Nc1ccc2ccccc2c1)c1cc(I)cc(I)c1", "inactive"),
    ("O=C(Nc1ccc(Oc2ccccc2)cc1)c1cc(I)cc(I)c1O", "active"),
    ("COc1c(I)cc(I)cc1C(=O)Nc1ccc2ccccc2c1", "inactive"),
    ("O=C(Nc1ccc(Oc2ccc(Cl)cc2)cc1)c1cc(I)cc(I)c1O", "active"),
    ("O=C(Nc1ccc2ccccc2c1)c1cc(I)cc(I)c1O", "active"),
    ("O=C(Nc1ccc(Oc2ccccc2)cc1)c1cc(I)cc(I)c1", "inactive"),
]
